molecular target: human mAChR M4 (Homo sapiens); construct: expressed in transfected cells; host or cells: CHO-K1 (ATCC), stably co-expressing chimeric G protein Gqi5; assay: mAChR M4 cell-based functional assay (calcium mobilization, EC80 acetylcholine), human M4; settings: Table 10; M4/Gqi5/CHO-K1 cells, decrease of EC80 acetylcholine response
Sequence (P08173 whole entry): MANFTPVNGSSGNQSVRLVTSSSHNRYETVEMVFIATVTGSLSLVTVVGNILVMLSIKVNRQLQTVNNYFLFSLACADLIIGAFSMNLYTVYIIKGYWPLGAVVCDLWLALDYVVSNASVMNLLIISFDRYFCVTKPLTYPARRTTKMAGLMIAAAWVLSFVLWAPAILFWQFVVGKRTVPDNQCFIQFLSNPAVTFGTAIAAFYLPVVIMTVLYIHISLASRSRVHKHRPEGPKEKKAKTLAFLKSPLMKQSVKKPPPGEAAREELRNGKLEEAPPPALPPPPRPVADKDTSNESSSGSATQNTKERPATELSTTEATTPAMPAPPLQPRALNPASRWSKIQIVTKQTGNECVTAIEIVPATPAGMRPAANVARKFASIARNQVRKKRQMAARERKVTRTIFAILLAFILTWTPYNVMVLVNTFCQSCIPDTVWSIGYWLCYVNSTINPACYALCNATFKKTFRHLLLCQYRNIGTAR
Below, each entry is listed with its recorded IC50.
Write the answer as a number in nM, unit excluded.

Use the examples below as a reference point.
COMPOUND: CC(=O)Nc1ccc(-c2ccc(O[C@H]3C[C@@H]4CN(CCC(C)(C)C)C[C@@H]4C3)nn2)cc1 [Compound 129]
UNITS: nM
IC50: 91.2
//
COMPOUND: CC(=O)Nc1ccc(-c2cnc(N[C@H]3C[C@@H]4CN(CC5CC6C=CC5C6)C[C@@H]4C3)cn2)cc1 (stereo partly shown) [Compound 157]
UNITS: nM
IC50: 52.9

stdin: Name the reported IC50 value associated with the compound CN(C)C(=O)c1ccc(-c2ccc(N[C@H]3C[C@@H]4CN(CC5CCOCC5)C[C@@H]4C3)nn2)cc1 [Compound 207]
stdout: 44.8

stdin: Query Fc1ccc(Oc2ccc(N[C@H]3C[C@@H]4CN(CC5CCOCC5)C[C@@H]4C3)nn2)cc1 [Compound 225] next
stdout: 19.6

stdin: Query CC(C)(C)CCN1C[C@H]2C[C@H](Oc3ccc(-c4ccc(C(F)(F)F)cc4)nn3)C[C@H]2C1 [Compound 139] next
stdout: 1560

stdin: Query c1ccc(-c2ccc(N[C@H]3C[C@@H]4CN(CC5CCOCC5)C[C@@H]4C3)nn2)cc1 [Compound 197] next
stdout: 1.25

stdin: Query CC(=O)Nc1ccc(-c2cnc(N[C@H]3C[C@@H]4CN(CCC(C)(C)C)C[C@@H]4C3)cn2)cc1 [Compound 156] next
stdout: 192

----------
molecular target: human mAChR M4 (Homo sapiens); construct: expressed in transfected cells; host or cells: CHO-K1 (ATCC), stably co-expressing chimeric G protein Gqi5; experiment: mAChR M4 cell-based functional assay (calcium mobilization, EC80 acetylcholine), human M4; conditions: Table 9; human M4; % ACh maximum at 30 μM
Below, each entry is listed with its recorded Emin.
Write the answer as a number in %, unit excluded.

Use the examples below as a reference point.
COMPOUND: Cc1nn(C)cc1-c1ccc(N[C@H]2C[C@@H]3CN(CCC(C)(C)C)C[C@@H]3C2)nn1
SYSTEM NAME: human mAChR M4 (Homo sapiens)
Emin [%]: 4.99
--
COMPOUND: Cc1cnn(C)c1-c1ccc(NCCC2C[C@@H]3CN(CCC(C)(C)C)C[C@@H]3C2)nn1 (stereo partly shown)
SYSTEM NAME: human mAChR M4 (Homo sapiens)
Emin [%]: 3.48
--
COMPOUND: Cc1cnn(C)c1-c1ccc(OCC2C[C@@H]3CN(CC45CC6CC(CC(C6)C4)C5)C[C@@H]3C2)nn1 (stereo partly shown)
SYSTEM NAME: human mAChR M4 (Homo sapiens)
Emin [%]: 3.76
--
COMPOUND: CCC(C)CN1C[C@H]2C[C@H](Nc3ccc(-c4cc(F)ccc4Cl)nn3)C[C@H]2C1 (stereo partly shown)
SYSTEM NAME: human mAChR M4 (Homo sapiens)
Emin [%]: 7.8
--
COMPOUND: Cc1cccnc1CN1C[C@H]2CC(COc3ccc(-c4cc(F)ccc4Cl)nn3)C[C@H]2C1 (stereo partly shown)
SYSTEM NAME: human mAChR M4 (Homo sapiens)
Emin [%]: 2.25

# next compound below
stdin: Name the reported Emin value associated with the compound CCCC(C)CN1C[C@H]2C[C@H](Nc3ccc(-c4c(C)cnn4C)nn3)C[C@H]2C1 (stereo partly shown)
stdout: 3.11
